target: T1, Human C5 (human, UniProt P01031 19-1676); assay: SPR, mAb captured by anti-hFc, 37C
T1 construct: The natural protein has a beta and an alpha chain; also called complement factor 5; complement component 5
quantity-measured: pKd
Remember, pKd is on a log scale: it is -log10 of the molar concentration.

Below are worked cases with known answers.
1) H4H12166P7 (antibody, human IgG4, V domains shown, human IgG4 Fc with S108P hinge mutation) VH: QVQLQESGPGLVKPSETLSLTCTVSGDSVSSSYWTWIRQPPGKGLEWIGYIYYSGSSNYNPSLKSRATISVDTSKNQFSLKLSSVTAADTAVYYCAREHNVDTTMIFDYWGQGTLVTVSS VL: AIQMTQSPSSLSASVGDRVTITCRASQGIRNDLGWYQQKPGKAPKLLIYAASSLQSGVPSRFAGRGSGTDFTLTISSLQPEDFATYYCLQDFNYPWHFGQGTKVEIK
8.13
2) H4H12159P (antibody, human IgG4, V domains shown) VH: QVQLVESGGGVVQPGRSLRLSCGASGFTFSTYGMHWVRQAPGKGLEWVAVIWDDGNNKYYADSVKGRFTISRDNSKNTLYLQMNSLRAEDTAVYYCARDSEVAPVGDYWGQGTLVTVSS VL: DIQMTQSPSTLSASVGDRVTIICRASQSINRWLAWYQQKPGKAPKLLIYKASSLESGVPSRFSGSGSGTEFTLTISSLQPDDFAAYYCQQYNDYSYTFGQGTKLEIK
9.99
3) H4H12166P2 (antibody, human IgG4, V domains shown, human IgG4 Fc with S108P hinge mutation) VH: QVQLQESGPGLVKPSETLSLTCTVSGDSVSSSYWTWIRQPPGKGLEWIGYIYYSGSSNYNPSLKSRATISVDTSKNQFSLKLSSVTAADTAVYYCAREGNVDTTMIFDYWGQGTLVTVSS VL: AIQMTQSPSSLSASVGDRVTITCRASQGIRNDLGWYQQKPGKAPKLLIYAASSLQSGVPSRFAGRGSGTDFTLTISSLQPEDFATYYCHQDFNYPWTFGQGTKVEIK
8.89
4) H4H12163P (antibody, human IgG4, V domains shown) VH: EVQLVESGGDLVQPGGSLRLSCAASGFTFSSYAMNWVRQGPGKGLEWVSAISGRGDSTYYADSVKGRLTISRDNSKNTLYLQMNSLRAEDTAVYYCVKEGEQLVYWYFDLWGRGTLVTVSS VL: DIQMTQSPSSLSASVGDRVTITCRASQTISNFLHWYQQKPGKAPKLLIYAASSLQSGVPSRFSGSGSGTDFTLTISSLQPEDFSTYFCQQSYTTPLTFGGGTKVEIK
9.14

Continue with the binder presented below.
stdin: Given the entry H4H12169P (antibody, human IgG4, V domains shown) VH: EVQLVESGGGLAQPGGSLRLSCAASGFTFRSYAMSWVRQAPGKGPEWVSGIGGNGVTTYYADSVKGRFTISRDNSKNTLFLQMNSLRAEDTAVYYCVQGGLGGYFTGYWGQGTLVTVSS VL: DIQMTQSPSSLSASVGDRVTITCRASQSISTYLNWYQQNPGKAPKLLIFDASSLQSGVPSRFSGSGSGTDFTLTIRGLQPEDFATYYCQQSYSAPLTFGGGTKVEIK , report its measured pKd.
stdout: 8.51
